# pIC50 values compiled below
subject.of.test: Beta-secretase 1 (Homo sapiens, UniProt P56817)
Sequence (P56817 whole entry): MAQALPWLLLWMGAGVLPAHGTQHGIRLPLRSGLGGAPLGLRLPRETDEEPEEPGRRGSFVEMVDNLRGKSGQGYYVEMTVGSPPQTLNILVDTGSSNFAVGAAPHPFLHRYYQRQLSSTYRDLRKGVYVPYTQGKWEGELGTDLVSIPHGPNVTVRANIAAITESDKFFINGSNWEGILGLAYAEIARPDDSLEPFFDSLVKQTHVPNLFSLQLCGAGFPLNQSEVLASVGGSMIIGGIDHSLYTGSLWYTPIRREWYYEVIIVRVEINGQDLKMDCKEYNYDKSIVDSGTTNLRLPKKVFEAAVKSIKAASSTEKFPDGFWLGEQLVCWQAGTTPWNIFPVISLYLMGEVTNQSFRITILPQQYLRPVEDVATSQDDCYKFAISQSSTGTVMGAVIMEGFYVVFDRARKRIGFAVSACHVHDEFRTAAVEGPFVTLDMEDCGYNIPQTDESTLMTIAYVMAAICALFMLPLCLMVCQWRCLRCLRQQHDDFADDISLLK
test.description: Inhibition of BACE1 in human HEK293 cells expressing APP 695 Swedish mutant assessed as inhibition of amyloid beta (1 to 40) production after overnight incubation by ELISA
Format: cell-based
// pIC50 here means minus log10 of the molar concentration (mol/L)

> print(dat)
                         compound.structure  endpoint.result
1  COc1ccc(-c2noc(C)c2C(=O)/N=C(\N)NCc2cc(C)c(NC(=O)c3ccco3)c(Cl)c2)cc1             5.85
2  COc1ccc(-c2nsc(C)c2C(=O)NC(N)=NCc2cc(C)c(NC(=O)CNCc3ccccc3)c(Cl)c2)cc1             7.15
3  CCC(=O)Nc1c(C)cc(CN=C(N)NC(=O)c2c(-c3ccc(OC)cc3)noc2C)cc1Cl             6.11
4  COc1ccc(-c2nsc(C)c2C(=O)NC(N)=NCc2cc(C)c(NC(=O)CN(C)C)c(Cl)c2)cc1             7.70
5  CCNCC(=O)Nc1c(Cl)cc(CN/C(N)=N/C(=O)c2c(-c3ccc(OC)cc3)nsc2C)cc1Cl             7.70

Recorded pIC50 for `COc1ccc(-c2noc(C)c2C(=O)/N=C(\N)NCc2cc(Cl)c(NC(=O)C3CC3)c(Cl)c2)cc1` with Beta-secretase 1 (Homo sapiens, UniProt P56817), please?
5.80

Another: `COc1ccc(-c2noc(C)c2C(=O)/N=C(\N)NCc2cc(Cl)c(NC(=O)CN(C)C)c(Cl)c2)cc1`
6.68

`COc1ccc(-c2noc(C)c2C(=O)/N=C(\N)NCc2cc(Cl)c(NC(C)=O)c(Cl)c2)cc1` ?
6.10

====

test.description: Drug uptake in rat CSF at 15 mg/kg, sc after 5 hrs by LC/MS/MS analysis
Assay type: ADME, organism-based, Cerebrospinal fluid
Parameters: dose 15 mg/kg, route subcutaneous
measurement.setup: read-out: Drug uptake
observation.type: concentration at 5 h (nM)
Quick reminder: number only, in nM, skip the unit.

Quick one: concentration at 5 h of `COc1ccc(-c2nsc(C)c2C(=O)/N=C(\N)NCc2cc(C)c(NC(=O)CN3CCC3)c(Cl)c2)cc1` ?
8

====

subject.of.test: Beta-secretase 1 (Homo sapiens, UniProt P56817)
test.description: Inhibition of BACE1 in human HEK293 cells expressing APP 695 Swedish mutant assessed as inhibition of amyloid beta (1 to 40) production after overnight incubation by ELISA
Format: cell-based
Entries annotated with measured pIC50
pIC50 here: minus log base 10 of the concentration, concentration in moles per litre.

Study these solved cases before continuing.
> print(dat)
                         compound.structure  endpoint.result
1  COc1ccc(-c2nsc(C)c2C(=O)/N=C(\N)NCc2cc(C)c(NC(=O)c3ccccc3)c(Cl)c2)cc1             6.37
2  COc1ccc(-c2nsc(C)c2C(=O)NC(N)=NCc2cc(C)c(NC(C)=O)c(Cl)c2)cc1             6.62
3  COc1ccc(-c2noc(C)c2C(=O)/N=C(\N)NCc2cc(Cl)cc(Cl)c2)cc1             5.80
4  COc1ccc(-c2nsc(C)c2C(=O)NC(N)=NCc2cc(Cl)c(NC(=O)CNCc3ccccc3)c(Cl)c2)cc1             6.85
5  COc1ccc(-c2noc(C)c2C(=O)NC(N)=NCc2cc(C)c(NC(=O)CCSC)c(Cl)c2)cc1             6.19

Now, please, on to the next compound.
What pIC50 value was documented for this compound, `COc1ccc(-c2nsc(C)c2C(=O)/N=C(\N)NCc2cc(Cl)c(NC(C)=O)c(Cl)c2)cc1` ?
6.51

====

test.description: Plasma concentration in rat at 40 mg/kg, sc preadministered with ABT measured after 5 hrs by LC/MS/MS analysis
Format: ADME, organism-based
Parameters: dose 40 mg/kg, route subcutaneous
observation.type: concentration at 5 h (µM)
The response must be a number in µM with no trailing unit.

Entry `COc1ccc(-c2nsc(C)c2C(=O)/N=C(\N)NCc2cc(C)c(NC(=O)CN3CCC3)c(Cl)c2)cc1` has what concentration at 5 h?
6.64

====

Listing: Ratio of selected compounds
subject.of.test: Beta-secretase 1 (Homo sapiens)
test.description: Ratio of IC50 for BACE1 in HEK293 cells expressing APP 695 Swedish mutant to Ki for BACE1
Format: cell-based

Record excerpt, results attached:
> print(dat)
                         compound.structure  endpoint.result
1  COc1ccc(-c2nsc(C)c2C(=O)/N=C(\N)NCc2cc(C)c(NC(=O)CNCc3ccccc3)c(Cl)c2)cc1                7
2  COc1ccc(-c2nsc(C)c2C(=O)/N=C(\N)NCc2cc(Cl)c(NC(=O)CNCc3ccccc3)c(Cl)c2)cc1               23
3  CCNCC(=O)Nc1c(C)cc(CN/C(N)=N/C(=O)c2c(-c3ccc(OC)cc3)nsc2C)cc1Cl              0.5
4  COc1ccc(-c2noc(C)c2C(=O)/N=C(\N)NCc2cc(C)c(NC(=O)CCSC)c(Cl)c2)cc1               21

Given the entry `COc1ccc(-c2noc(C)c2C(=O)/N=C(\N)NCc2cc(Cl)c(NC(=O)CSC)c(Cl)c2)cc1` , report its measured Ratio.
40

# repeat for `COc1ccc(-c2nsc(C)c2C(=O)/N=C(\N)NCc2cc(C)c(NC(=O)CN3CCC3)c(Cl)c2)cc1`
1

Try the compound `CCC(=O)Nc1c(C)cc(CN/C(N)=N/C(=O)c2c(-c3ccc(OC)cc3)noc2C)cc1Cl`
19

Ok, now `COc1ccc(-c2noc(C)c2C(=O)/N=C(\N)NCc2cc(C)c(NC(=O)CN(C)C)c(Cl)c2)cc1`
2

====

subject.of.test: Beta-secretase 1 (Homo sapiens, UniProt P56817)
observation.type: pKi
Schema: pKi number; meaning minus log10 of the concentration expressed in molar units.

See these solved cases before continuing.
> print(dat)
                         compound.structure  endpoint.result
1  COc1ccc(-c2nsc(C)c2C(=O)/N=C(\N)NCc2cc(C)c(NC(=O)CN3CCC3)c(Cl)c2)cc1             8.30
2  COc1ccc(-c2noc(C)c2C(=O)/N=C(\N)NCc2cccc3ccccc23)cc1             5.77

# get_value(readout= pKi, system= Beta-secretase 1 (Homo sapiens, UniProt P56817)) for `COc1ccc(-c2noc(C)c2C(=O)/N=C(\N)NCc2cc(Cl)c(NC(C)=O)c(Cl)c2)cc1`
8.00

// query: `Cc1onc(-c2ccc(F)cc2)c1C(=O)/N=C(\N)NCc1ccc(Cl)c(Cl)c1`
5.62

Now consider `COc1ccc(-c2nsc(C)c2C(=O)NC(N)=NCc2cc(Cl)c(NC(=O)CNCc3ccccc3)c(Cl)c2)cc1` .
8.22

Moving on to `COc1ccc(-c2nsc(C)c2C(=O)NC(N)=NCc2cc(Cl)c(NC(=O)CN3CCC3)c(Cl)c2)cc1`
8.40

Another: `COc1ccc(-c2nsc(C)c2C(=O)NC(N)=NCc2cc(C)c(NC(C)=O)c(Cl)c2)cc1`
7.70

Likewise for `COc1ccc(-c2nsc(C)c2C(=O)/N=C(\N)NCc2cc(Cl)c(NC(=O)CN(C)C)c(Cl)c2)cc1` ?
7.70

====

subject.of.test: Beta-secretase 1 (Homo sapiens)
test.description: Inhibition of BACE1 in human KBV1 cells expressing APP 751 Swedish mutant assessed as inhibition of amyloid beta (1 to 40) production after overnight incubation by ELISA in presence of tariquidar
Format: cell-based
observation.type: IC50 (nM)
Numeric answer only, unit nM assumed.

# annotated cases, reported IC50 shown
> print(dat)
                         compound.structure  observation.type  endpoint.result
1  COc1ccc(-c2nsc(C)c2C(=O)NC(N)=NCc2cc(Cl)c(NC(=O)CN3CCC3)c(Cl)c2)cc1              IC50                8
2  COc1ccc(-c2nsc(C)c2C(=O)/N=C(/N)NCc2cc(Cl)c(N)c(Cl)c2)cc1              IC50             1030

# input compound: `COc1ccc(-c2nsc(C)c2C(=O)/N=C(\N)NCc2cc(C)c(NC(=O)CN3CCC3)c(Cl)c2)cc1` ; wanted: its IC50
5

====

Entries annotated with measured IC50
subject.of.test: Beta-secretase 1 (Homo sapiens, UniProt P56817)
test.description: Inhibition of BACE1 in human HEK293 cells expressing APP 695 Swedish mutant assessed as inhibition of amyloid beta (1 to 40) production after overnight incubation by ELISA
Format: cell-based
Quick note: give the figure in nM, leave out the unit.

> print(dat)
                         compound.structure  observation.type  result.units  endpoint.result
1  COc1ccc(-c2nsc(C)c2C(=O)/N=C(/N)NCc2cc(Cl)c(N)c(Cl)c2)cc1              IC50            nM              630
2  COc1ccc(-c2noc(C)c2C(=O)/N=C(\N)NCc2cc(C)c(NC(=O)C3CC3)c(Cl)c2)cc1              IC50            nM              330
3  COc1ccc(-c2noc(C)c2C(=O)/N=C(\N)NCc2cc(C)c(NC(=O)CN(C)C)c(Cl)c2)cc1              IC50            nM               90

Query (compound): `CCNCC(=O)Nc1c(C)cc(CN/C(N)=N/C(=O)c2c(-c3ccc(OC)cc3)nsc2C)cc1Cl` ; field requested: IC50
10

And for `COc1ccc(-c2nsc(C)c2C(=O)/N=C(\N)NCc2cc(Cl)c(NC(=O)CN(C)C)c(Cl)c2)cc1` ?
70

Repeat with `COc1ccc(-c2noc(C)c2C(=O)NC(N)=NCc2cc(Cl)c(NC(=O)CS(C)(=O)=O)c(Cl)c2)cc1`
1900

Also need `COc1ccc(-c2nsc(C)c2C(=O)NC(N)=NCc2cc(Cl)c(NC(=O)CN3CCC3)c(Cl)c2)cc1` , thanks.
8

Entry to check: `COc1ccc(-c2noc(C)c2C(=O)NC(N)=NCc2cc(Cl)c(NC(=O)CSC)c(Cl)c2)cc1`
2000

Next record, please: `COc1ccc(-c2nsc(C)c2C(=O)/N=C(\N)NCc2cc(C)c(NC(=O)CN3CCC3)c(Cl)c2)cc1`
5

Origin of values: ChEMBL document CHEMBL2177026
